Molecular target: wild-type human PTHR (Homo sapiens, UniProt Q03431)
Construct: expressed in transfected cells
Sequence (Q03431 27-593): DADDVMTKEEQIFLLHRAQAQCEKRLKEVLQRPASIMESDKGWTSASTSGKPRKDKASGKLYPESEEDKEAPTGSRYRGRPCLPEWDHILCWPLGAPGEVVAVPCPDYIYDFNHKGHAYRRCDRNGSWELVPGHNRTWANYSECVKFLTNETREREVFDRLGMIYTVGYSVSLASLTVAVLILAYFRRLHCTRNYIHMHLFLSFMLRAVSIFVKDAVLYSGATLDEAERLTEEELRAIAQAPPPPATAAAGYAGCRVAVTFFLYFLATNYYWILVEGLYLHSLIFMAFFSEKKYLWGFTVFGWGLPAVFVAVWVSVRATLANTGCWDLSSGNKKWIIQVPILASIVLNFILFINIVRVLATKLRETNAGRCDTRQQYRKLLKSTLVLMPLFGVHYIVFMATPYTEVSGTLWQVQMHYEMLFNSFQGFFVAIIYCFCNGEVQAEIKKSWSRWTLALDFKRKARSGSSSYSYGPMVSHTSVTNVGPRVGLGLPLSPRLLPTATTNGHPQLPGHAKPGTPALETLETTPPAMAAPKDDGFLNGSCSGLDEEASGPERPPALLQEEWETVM
Assay: Competition binding in intact HKRK-B7 cells with 125I-PTH(1-34) tracer
Conditions: [Ala1,Arg19]hPTH(1-31)NH2 analogs; intact HKRK-B7 cells, 125I-[Nle8,21,Tyr34]rPTH(1-34)NH2 tracer; read-out: PTHR-WT (HKRK-B7 cells) IC50
Method: Cell Culture—Cells were cultured at 37° C. in a humidified atmosphere containing 5% CO2 in Dulbecco's modified Eagle's medium (DMEM), supplemented with 10% fetal bovine serum (HyClone, Logan Utah), 100 units/ml penicillin G, and 100 ug/ml streptomycin penicillin G/streptomycin (Invitrogen Corp. Carlsbad, Calif.). For binding and cAMP studies performed with the intact PTHR, the HKRK-B7 and ROS 17/2.8 cell lines were used. […]
Where no end group is shown, it is not given here.
readout: IC50

1) AVSEIQLMHNLGKHLNSMERVEWLRKKLQDV-NH2 [Arg^19→Glu]; 125 nM

// below: IC50 requested for another substance
In: I would be grateful if you could share the reported IC50 for AVSEIQLMHNLGKHLNSMRRVEWERKKLQDV-NH2 [Leu^24→Glu] .
Out: > 10000 nM

* * *

Test: Circular dichroism spectroscopy, helical residues per peptide chain
Assay type: physicochemical
Details: hPTH(1-31)NH2 analogs; calculated from [θ]222
Where no end group is shown, it is not given here.
Provide the recorded CD helical residues for the entries that follow.
One number for each entry.

Field: example entries. Status: answers known.
1) SVSEIQLMHNLGKHLNSMERVEWLRKKLQDA-NH2 [Val^31→Ala]; 9
2) SVSEIQLMHNLGKHLNSMERVEWLRKKAQDV-NH2 [Leu^28→Ala]; 8

Here are 7 substances. What values of CD helical residues were reported for them?
1. SVSEIQLMHNLGKHLNSMERVEALRKKLQDV-NH2 [Trp^23→Ala]
2. SVSEIQLMHNLGKHLNAMERVEWLRKKLQDV-NH2 [Ser^17→Ala]
3. SVSEIQLMHNLGKHLNSMRRVAWLRKKLQDV-NH2 [Glu^19,22→Arg,Ala]
4. SVSEIQLMHNLGKHLNSMERVEWLRKKLADV-NH2 [Gln^29→Ala]
5. SVSEIQLMHNLGKHLNSMERVEWARKKLQDV-NH2 [Leu^24→Ala]
6. SVSEIQLMHNLGKHLNSMRRVEWLRKKLQDV-NH2 [Glu^19→Arg]
7. SVSEIQLMHNLGKHLNSMARVEWLRKKLQDV-NH2 [Glu^19→Ala]

Out:
1. 7
2. 10
3. 8
4. 9
5. 7
6. 8
7. 9

* * *

I'd be grateful if you could share measured log10 IC50 for these entries.
Molecular target: PTHR-delNt (Homo sapiens, UniProt Q03431, DEL24-181)
Construct: expressed in transfected cells; host or cells: COS-7 cells, transient co-transfection; membranes prepared
Sequence (Q03431 with tags, fused parts or gaps DEL24-181): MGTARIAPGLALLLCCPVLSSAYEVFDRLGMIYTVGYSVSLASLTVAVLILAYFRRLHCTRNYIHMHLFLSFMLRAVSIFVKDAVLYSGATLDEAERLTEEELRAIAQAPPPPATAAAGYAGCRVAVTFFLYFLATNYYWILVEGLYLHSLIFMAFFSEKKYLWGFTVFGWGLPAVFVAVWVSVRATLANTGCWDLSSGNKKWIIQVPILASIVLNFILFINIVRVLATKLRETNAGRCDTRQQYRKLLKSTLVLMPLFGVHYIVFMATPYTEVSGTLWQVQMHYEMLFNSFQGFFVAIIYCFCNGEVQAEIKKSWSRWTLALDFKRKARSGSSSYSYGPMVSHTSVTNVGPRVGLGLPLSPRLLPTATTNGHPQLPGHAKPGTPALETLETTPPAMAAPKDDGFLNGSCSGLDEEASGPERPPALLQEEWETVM
Assay: Competition binding in COS-7 cell membranes with 125I-[Aib1,3,M]PTH(1-15)NH2 tracer
Conditions: hPTH(1-31)NH2 analogs; COS-7 membranes cotransfected with negative-dominant Gαs; read-out: PTHR-delNT (COS-7) IC50
Where no end group is shown, it is not given here. [ ]: non-standard residue; d: D form. Apa = (S)-2-amino-4[(2-amino)pyrimidinyl]methylalanine
Heads up, the numbers here are log10 of IC50 in µM units.

In the examples that follow, each entry is paired with its recorded log10 IC50.
1. SVSEIQLMHNLGKHLNSMERVEWLRKKLADV-NH2 [Gln^29→Ala]; 0.29
2. SVSEIQLMHNLGKHLNSMRRVAWLRKKLQDV-NH2 [Glu^19,22→Arg,Ala]; -0.44
3. SVSEIQLMHNLGKHLNSMARVEWLRKKLQDV-NH2 [Glu^19→Ala]; 0.47
4. Arg^20→Apa: hPTH(1-31)NH2 analog with Arg^20 replaced by (S)-2-amino-4[(2-amino)pyrimidinyl]methylalanine (Apa) (SVSEIQLMHNLGKHLNSME[Apa]VEWLRKKLQDV-NH2); 0.76
5. SVSEIQLMHNLGKHLNSMERVEWARKKLQDV-NH2 [Leu^24→Ala]; 0.94
6. SVSEIQLMHNLGKHLNSMERVAWLRKKLQDV-NH2 [Glu^22→Ala]; 0.77
7. SVSEIQLMHNLGKHLNSMERVEWLRAKLQDV-NH2 [Lys^26→Ala]; 0.79
8. SVSEIQLMHNLGKHLNSMERVEWLAKKLQDV-NH2 [Arg^25→Ala]; 0.86

Give log10 IC50 for each listed item.
1. SVSEIQLMHNLGKHLNSMERVEALRKKLQDV-NH2 [Trp^23→Ala]
2. SVSEIQLMHNLGKHLNAMERVEWLRKKLQDV-NH2 [Ser^17→Ala]
3. SVSEIQLMHNLGKHLNSAERVEWLRKKLQDV-NH2 [Met^18→Ala]
4. SVSEIQLMHNLGKHLNSMEQVEWLRKKLQDV-NH2 [Arg^20→Gln]
5. SVSEIQLMHNLGKHLNSMARVAWLRKKLQDV-NH2 [Glu^19,22→Ala,Ala]
6. SVSEIQLMHNLGKHLNSMERVEWLRKKAQDV-NH2 [Leu^28→Ala]
7. SVSEIQLMHNLGKHLNSMRRVEWLRKKLQDV-NH2 [Glu^19→Arg]
8. SVSEIQLMHNLGKHLNSMEAVEWLRKKLQDV-NH2 [Arg^20→Ala]

Out:
1. 0.87
2. 0.66
3. 0.94
4. 1.01
5. -0.21
6. 0.54
7. 0.09
8. 1.29

Would you mind giving log10 IC50 for every substance in the list below?
1. SVSEIQLMHNLGKHLNSMEEVEWLRKKLQDV [Arg^20→Glu]
2. SVSEIQLMHNLGKHLNSMEKVEWLRKKLQDV-NH2 [Arg^20→Lys]
3. SVSEIQLMHNLGKHLNSMERVEWLRKKLQDA-NH2 [Val^31→Ala]

Out:
1.17
0.85
0.69

Sourced from patent US8143374B2
